Examples of compounds with documented absorption maximum follow.
test: solvent given as SMILES; conditions: in Cc1ccccc1
property measured: absorption maximum (nm)

cpd smiles	property measured	value
Cc1cc2cc(N3c4ccccc4Oc4ccccc43)ccc2c(=O)o1	absorption maximum	395
CCN(CC)c1ccc2cc(-c3cn4ccccc4n3)c(=O)oc2c1	absorption maximum	407
COc1ccc2c3ccc(OC)cc3n(-c3ccc(-c4nnc(C)o4)cc3)c2c1	absorption maximum	319
Fc1ccc(-c2nc3n(c2-c2ccncc2)CCS3)cc1	absorption maximum	333.5
CCCCCCCCCCCCn1nnc(-c2ccc(C#Cc3ccc(C#Cc4ccc(-c5nnn(CCCCCCCCCCCC)n5)cc4)c4nc5c6ccccc6c6ccccc6c5nc34)cc2)n1	absorption maximum	428
COc1ccc(-c2csc(/C(C#N)=C/c3ccc(C#N)cc3)n2)cc1	absorption maximum	400
COc1ccc2c3cccc4c(OC)ccc(c5cccc1c52)c43	absorption maximum	459
CC(C)(C)c1ccc2c(c1)c1cc(C(C)(C)C)ccc1n2-c1ccc2c(c1)C(=O)c1ccc(-n3c4ccc(C(C)(C)C)cc4c4cc(C(C)(C)C)ccc43)cc1C2=O	absorption maximum	463
N#Cc1cc(-n2c3ccccc3c3ccccc32)nc(-n2c3ccccc3c3ccccc32)n1	absorption maximum	342
N#Cc1c(-n2c3ccc(Cl)cc3c3cc(Cl)ccc32)c(C#N)c(-n2c3ccc(Cl)cc3c3cc(Cl)ccc32)c(-n2c3ccc(Cl)cc3c3cc(Cl)ccc32)c1-n1c2ccc(Cl)cc2c2cc(Cl)ccc21	absorption maximum	384
CCN(CC)c1ccc([N+]2=Cc3ccc4c5c(ccc4c3O[B-]2(c2c(F)c(F)c(F)c(F)c2F)c2c(F)c(F)c(F)c(F)c2F)C=[N+](c2ccc(N(CC)CC)cc2)[B-](c2c(F)c(F)c(F)c(F)c2F)(c2c(F)c(F)c(F)c(F)c2F)O5)cc1	absorption maximum	584
CC(C)(C)c1ccc(C(C)(C)C)c(N2C(=O)c3cccc4c(-c5ccc(-c6ccc([N+](=O)[O-])cc6)s5)ccc(c34)C2=O)c1	absorption maximum	392
Cc1ccc2c(c1)C1(c3ccccc3-c3ccccc31)c1cc(C)ccc1N2c1ccc(-c2ncccn2)cc1	absorption maximum	380
CC(C)c1cccc(C(C)C)c1N1C(=O)c2cc(Cl)c3c4c(Cl)cc5c6c(cc(Cl)c(c7c(Cl)cc(c2c37)C1=O)c64)C(=O)N(c1c(C(C)C)cccc1C(C)C)C5=O	absorption maximum	523
O=C(c1ccncc1)c1ccc(-n2c3ccccc3c3cc(-n4c5ccccc5c5ccccc54)ccc32)cc1	absorption maximum	362
CCOC(=O)c1cc2ccc3ccccc3c2c(C(=O)OCC)c1N	absorption maximum	427
CCN(CC)c1ccc2cc(-c3csc(N)c3C#N)c(=O)oc2c1	absorption maximum	403
CC(C)(C)c1ccc2c(c1)c1cc(C(C)(C)C)ccc1n2-c1ccc2oc3nc4oc5ccc(C(F)(F)F)cc5c4cc3c2c1	absorption maximum	343
O=C1NC(=O)c2c1c1c3ccccc3[nH]c1c1[nH]c3ccccc3c21	absorption maximum	398
c1ccc(-c2cc(-c3ccc(N4c5ccccc5C(c5ccccc5)(c5ccccc5)c5ccccc54)cc3)nc(-c3ccccc3)n2)cc1	absorption maximum	368.88
N#CC(C#N)=Cc1cn(-c2ccccc2)nc1-c1ccccc1	absorption maximum	361
CCc1c(C)c2n(c1C)[B-](F)(F)[N+]1=C(c3ccc[nH]3)c3ccccc3C1=C2C	absorption maximum	609
CC1(C)c2ccccc2N(c2c(F)cc(-c3nnc(-c4ccccc4)o3)cc2F)c2ccccc21	absorption maximum	376
CC1=[N+]2C(=C(c3ccc(N4CCOCC4)cc3)c3ccc(C)n3[B-]2(F)F)C=C1	absorption maximum	511
CCCCCCCCCCCCN1C(=O)c2cccc3c(N(Cc4ccccn4)Cc4ccccn4)c4ccccc4c(c23)C1=O	absorption maximum	492
COc1cc(N(c2ccccc2)c2ccccc2)ccc1C=C(C#N)C#N	absorption maximum	443
CCCCCCCCCCCn1cccc1C1=[N+]2C(=Cc3c(C)cc(C)n3[B-]2(F)F)c2ccccc21	absorption maximum	590
CCCCCCOc1ccc(/C=C/c2ccc(N(c3ccc(/C=C/c4ccc(OCCCCCC)cc4)cc3)c3ccc(-c4nc5ccccc5nc4-c4ccc(N(c5ccc(/C=C/c6ccc(OCCCCCC)cc6)cc5)c5ccc(/C=C/c6ccc(OCCCCCC)cc6)cc5)cc4)cc3)cc2)cc1	absorption maximum	374
